Every entry's value here was drawn from PubChem BioAssay (NCI).

assay.name: NCI Yeast Anticancer Drug Screen. Data for the sgs1 mgt1 strain (AID 161);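 also: 0% = growth of cultures given vehicle only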
condition.info: S. cerevisiae sgs1 mgt1 strain, at 5.0 µM (retest, dose inferred, filed as 0.5), active compounds read high
This is part of a sample that, as a whole, favours compounds with a hit. Of some 79,000 tested, about 15% had one in any assay.
Entries and their measured growth inhibition follow.
# output: bare number, implied unit %

Below are worked cases with known answers.
molecule: O=C1C(Cl)=CC(=NCl)C=C1Cl
growth inhibition / %: 27

molecule: CS(=O)(=O)OCCN(CCOS(C)(=O)=O)c1ccc(C=Nc2cc(Cl)c(O)c(Cl)c2)c(Cl)c1
growth inhibition / %: -1

molecule: OC1CN(C2CCCCC2)CC1C1(O)CCN(C2CCCCC2)C1 (stereo unspecified)
growth inhibition / %: 0

molecule: Nc1ccc(Cl)c2cccnc12
growth inhibition / %: 5

molecule: Cc1ccccc1SCc1nc2ccccc2c(C)[n+]1[O-]
growth inhibition / %: 9

What does the data say about its growth inhibition? Entry: `COc1ccccc1C(=O)c1c(C(=O)O)ccc2ccccc12`
-3
